Ref: the RNAGym collection of RNA variant scans (doi:10.7554/elife.80360)

B1: HDV Ribozyme (parent)
chain: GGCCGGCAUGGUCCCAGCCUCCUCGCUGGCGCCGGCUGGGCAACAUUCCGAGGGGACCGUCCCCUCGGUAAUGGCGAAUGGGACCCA

Variants of: B1
protocol.details: self-cleavage, relative activity (ratio to wild type); higher = more cleavage; co-transcriptional
Assign class by self-cleavage: not lower than 0.3 means condition met; lower than 0.3 means condition not met.

Completed entries (count: 6):
sequence.change	qualitative.label
C3A C4U	condition not met
C36A G55C	condition not met
G40C G68C	condition not met
C22A A56C	condition met
U9A G39C	condition not met
C24G G67U	condition not met

IN: Say whether G11C A43U shows self-cleavage of 0.3 or more.
OUT: condition not met

IN: Textbook exercise: given the entry G80A C84A , state whether its self-cleavage is greater than or equal to 0.3.
OUT: condition met
